tested on: A549/ATCC NSCLC; experiment: NCI-60 one-dose screen, 48 h; conditions: 10 µM unless noted
This is part of a sample that, as a whole, favours compounds with a hit. Of some 83,000 tested, about 20% had one in any assay. Active and inactive are the calls of the source. The calls were made as follows: active = growth percent below 10; inactive = the rest.
Pick one and only one: active, inactive

# example entries with known answers
Fill in: this test's call for Cc1cc2ccccc2c[n+]1CC(=O)c1ccc(-c2ccccc2)cc1 is ___
inactive

Try this compound too: C=C1C(=O)O[C@H]2[C@H]1CC/C(C=Nc1c(N)cc(C(F)(F)F)cc1Br)=C\CC[C@@]1(C)O[C@@H]21
inactive

Let us now turn to O=CN1N=C(c2ccc(F)cc2)CC1c1cccc(Nc2ccnc3cc(C(F)(F)F)ccc23)c1 (stereo not drawn)
inactive

Next compound up: CCO/C=N/S(=O)(=O)c1cc2c(cc1Cl)NC=NS2(=O)=O
inactive

// same read-out, input: CCCCn1c(=O)c(/C=C/C(=O)/C=C/c2cc3ccccc3n(CCCC)c2=O)cc2ccccc21
active

Same thing, different compound: CC(C)(C)c1ccc(O)c(Cc2cc(C(C)(C)C)ccc2O)c1
inactive

Do the same for Cn1c2c(c3ccc(-c4ccn[nH]4)cc3c1=O)C(=O)c1ccccc1-2 please
active

Request: Cc1[nH]c(N=Nc2ccccc2)nc1N=Nc1ccccc1
inactive

Others:
In this assay, the call recorded for CCc1ccc(OCc2ccccc2C(=O)Nc2ccc3nc(C)cc(N)c3c2)cc1 was what?
active

Similarly, CC(=O)Nc1ccc2c(c1)Cc1cc(F)ccc1-2 ?
inactive

# iterate: CC(=O)c1ccc(NC(=O)CSc2nnc(-c3cc(-c4ccc(Cl)cc4)nc4ccccc34)o2)cc1
inactive

O=c1c2ccccc2oc2ccc(OCCCCCCN3CCCCCC3)cc12 , same question.
inactive

Input COC(=O)CCc1cc(O)c2c(c1)[C@@H](C(=O)OC)[C@H](c1ccc(O)c(O)c1)O2
inactive

How about Cn1c2ccccc2c2c(OC(=O)c3ccccc3)c3c(nc21)-c1ccccc1C3 ?
inactive

Same question, COc1ccc(-c2cc(-c3nnc(SCC(=O)Nc4ccc(/C(C)=N\O)cc4)o3)c3ccccc3n2)cc1 this time
inactive

// same read-out, input: COc1ccc(C2CC(c3ccc(OC)cc3O)=NN2c2ccc(S(N)(=O)=O)cc2)cc1 (stereo not drawn)
inactive

Try this compound too: COC(=O)c1oc2c(C(=O)/C=C/c3ccc(OC)cc3)c(OCCCN3CCCCC3)ccc2c1C
active

Now try O=c1[nH]nc(-c2ccccc2)c2sc(NC(=S)Nc3ccc(Cl)cc3)nc12 .
inactive

How about COc1ccc(/C=C/C(=O)Nc2ncnc3nc[nH]c23)cc1 ?
inactive

* * *

tested on: A549/ATCC NSCLC; assay: NCI-60 one-dose screen, 48 h (100 = growth as untreated, 0 = no growth, -100 = all killed); details: 10 µM unless noted
This is part of a sample that, as a whole, favours compounds with a hit. Of some 83,000 tested, about 20% had one in any assay.
I would appreciate it if you labelled entries Satisfied when growth is 80% or higher, otherwise Not satisfied.

Could you please find out whether CC1=C(CCCOC(=O)NCCCl)C2=C(C)C3(CC3)[C@@](C)(O)C(=O)C2=C1 has growth that meets 80% or exceeds it?
Not satisfied

***
Please check the record C#C[C@@]1(O)[C@@H](CO)O[C@@H](n2cc(Cl)c3c(N)ncnc32)[C@@H]1O and state if its growth is at or above 80%.
Not satisfied

Next up: C=C1C(=O)O[C@H]2[C@H]1CC/C(COC(=O)c1cc3ccccc3o1)=C\CC[C@@]1(C)O[C@@H]21
Not satisfied

Try this compound too: COc1ccc([C@H]2[C@@H](F)C(=O)N2c2cc(OC)c(OC)c(OC)c2)cc1F
Not satisfied

Now this one: N#CC1C(c2ccc(Cl)cc2)=Nc2c(c(-c3ccccc3)nn2-c2ccccc2)C12C(=O)Nc1ccc(Cl)cc12 (stereo unspecified)
Not satisfied

Do the same for Cc1cccc(C)c1NC(=O)CN(CC(C)C)CC(O)COc1ccccc1 (stereo unspecified) please
Satisfied
